Hey, just so you know, these numbers are from paper PMC3656107.

# Binding Score per record follows
Target: MHC-II DRB1*03:01 (Homo sapiens, UniProt P01903+P01911, A100K/A102G/A103R/A169T/F55Y/I96L/K41T/L162R/M171V/P40S/Q125H/Q178H/Q39Y/R42S/S66N/T106N/T262R/W38E/Y61H)
Sequence (P01903 26-254 limits assumed, other chains not shown): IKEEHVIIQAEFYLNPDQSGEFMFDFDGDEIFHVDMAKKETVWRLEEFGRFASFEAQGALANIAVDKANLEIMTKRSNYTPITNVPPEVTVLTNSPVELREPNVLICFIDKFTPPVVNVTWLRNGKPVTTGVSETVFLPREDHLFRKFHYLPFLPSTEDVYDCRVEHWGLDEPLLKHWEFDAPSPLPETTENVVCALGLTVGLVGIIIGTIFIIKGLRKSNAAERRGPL
Experiment: Cell-free REVEAL class II binding assay
Conditions: signal of test peptide as percentage of allele-specific positive control peptide, fluorescence, conformation-specific monoclonal antibody
Dear colleague, please return just the value in %, with no unit written.

Solved cases below.
# chain, Binding Score, %
measured = [
    ("PIIARYIRLHPTHYS [synthetic wild type FVIII 15 mer peptide]", 0.3),
    ("PRCLTRYYSSFVNME [synthetic wild type FVIII 15 mer peptide]", 0.9),
    ("KMVYEDTLTLFPFSG [synthetic wild type FVIII 15 mer peptide]", 57.6),
]

Exam item: Recorded Binding Score for IFNPPIIARYIRLHP [synthetic wild type FVIII 15 mer peptide] , please?
Marked response: 0.7

Exam item: Report Binding Score for PPLLTRYLRIHPQSW [synthetic wild type FVIII 15 mer peptide] please.
Marked response: 0.0
